Reference source: the METLIN SMRT retention time set (Domingo-Almenara et al. 2019)

Experiment: gradient 5% acetonitrile 3 min, to 50% in 2 min, to 85% in 15 min, held 3 min, 100 µL/min
Conditions: column: Zorbax Extend-C18 2.1 x 50 mm; eluents: water / acetonitrile, 0.1% formic acid
RP-LC retention time below 700 s gives 0 (no); RP-LC retention time at or above it gives 1 (yes).

[
  {
    "molecule": "CCc1ccccc1S(=O)(=O)Nc1ccc2c(c1)CCC(=O)N2CCOC",
    "category.label": "1 (yes)"
  },
  {
    "molecule": "Cc1ccc(C(=O)N2CCc3cn(C)c4cccc(c34)C2)cc1F",
    "category.label": "1 (yes)"
  },
  {
    "molecule": "Cc1ccccc1-c1nnc(CSc2nnc(NC(=O)c3ccc(Br)o3)s2)o1",
    "category.label": "1 (yes)"
  },
  {
    "molecule": "CCn1c(CN2CCN(S(C)(=O)=O)CC2)nc2cc(NC(=O)C(C)C)ccc21",
    "category.label": "0 (no)"
  },
  {
    "molecule": "Cc1cccc(-c2noc(Cn3nc(-c4ccccc4)ccc3=O)n2)c1",
    "category.label": "1 (yes)"
  },
  {
    "molecule": "Cc1ccccc1CNC(=O)C1(C)CCCN(C(=O)NCc2ccco2)C1 (stereo not given)",
    "category.label": "1 (yes)"
  },
  {
    "molecule": "CCn1cc(C(=O)Nc2cccc(F)c2)c(S(=O)(=O)N2CCSCC2)n1",
    "category.label": "1 (yes)"
  },
  {
    "molecule": "COc1ccc(Cl)cc1NC(=O)CSc1nccc(N2CCN(c3cc(C)ccc3C)CC2)n1",
    "category.label": "1 (yes)"
  },
  {
    "molecule": "COC(=O)c1ccc(NC(=O)CN2CCc3[nH]c4c(C)c(Cl)ccc4c(=O)c3C2)cc1",
    "category.label": "0 (no)"
  },
  {
    "molecule": "O=C(NCc1cccs1)C(=O)NCC1(c2ccc(F)cc2)CC1",
    "category.label": "1 (yes)"
  },
  {
    "molecule": "CC1CCN(CCNC(=O)C2CCN(S(=O)(=O)c3ccc4c(c3)sc(=O)n4C)CC2)CC1",
    "category.label": "0 (no)"
  },
  {
    "molecule": "Cc1noc(-c2cccn2Cc2cccc(Cl)c2)n1",
    "category.label": "1 (yes)"
  },
  {
    "molecule": "COc1ccc(CNC(=O)c2cc(NC(C)=O)cc3nc(C)ccc23)cc1OC",
    "category.label": "0 (no)"
  },
  {
    "molecule": "COC(=O)c1ccc2c(=O)n(CCc3ccccc3)c(N3CCCC3)nc2c1",
    "category.label": "1 (yes)"
  },
  {
    "molecule": "Cc1ccc(C(=O)N2CCC(c3nc(C4CC4)n[nH]3)CC2)s1",
    "category.label": "0 (no)"
  },
  {
    "molecule": "COC(=O)c1cc(OCC(=O)NCc2ccc3c(c2)OCO3)c2cc(OC)ccc2n1",
    "category.label": "1 (yes)"
  },
  {
    "molecule": "O=C(NCC(F)(F)F)C1CCN(C(=O)NCc2ccccc2)CC1",
    "category.label": "0 (no)"
  },
  {
    "molecule": "O=C(c1ccc(-c2cncnc2)nc1)N1CCN(c2ccc(Cl)cc2)CC1",
    "category.label": "1 (yes)"
  },
  {
    "molecule": "O=C(NCCCO)c1ccc(CSc2nc3ccccc3[nH]2)cc1",
    "category.label": "0 (no)"
  }
]
